Each recorded value in this set is attributed to the supplement of paper PMC10949913.

tested on: CU-ACC1; assay: area under concentration-response curve (viability) (AUC (a.u.)); higher = less active; details: 48 h
EXPERIMENTAL_ENDPOINT: area under concentration-response curve
One number for each entry.

MOLECULE	TESTED_ON	area under concentration-response curve
CCCCCCOC(=O)/N=C(/N)c1ccc(NCc2nc3cc(C(=O)N(CCC(=O)OCC)c4ccccn4)ccc3n2C)cc1	CU-ACC1	523
O=C(O)c1cccc(-c2noc(-c3ccccc3F)n2)c1	CU-ACC1	477
C[C@@H]1C[C@H]2[C@@H]3\C=C(C)/C4=C/C5=C(C[C@]4(C)[C@H]3[C@@H](O)C[C@]2(C)[C@@]1(O)C(=O)COC(C)=O)C=N[N]5C6=CC=CC=C6	CU-ACC1	513
O=C1c2cccc(O)c2C(=O)c2c(O)cc(CO)cc21	CU-ACC1	508
CCCCCCCN(CC)CCCC(O)c1ccc(N[S+](C)(=O)[O-])cc1 (configuration not stated)	CU-ACC1	398
CCn1nc(C2CCN(C(=O)CCO)CC2)nc1-c1cnc(N)c(-c2nnc(C(C)(C)C)o2)n1	CU-ACC1	387
COc1ccc([S+](=O)([O-])Nc2cccnc2Nc2ccc(O)cc2)cc1	CU-ACC1	479
O=[S+]([O-])(CCSSCC[S+](=O)([O-])[O][Na])[O][Na]	CU-ACC1	469

Your task in this section: give area under concentration-response curve for each listed record.
1. CC(=O)Nc1ccc(C(=O)NC(C)(C)C)cc1
2. C[C@H](NC(=O)CCC(F)(F)F)C(=O)N[C@@H]1C(=O)N(CCO)c2ncccc2-c2ccccc21
3. CCN(CC)CCCCNc1nc2cc(Cl)c(Cl)cc2nc1-c1ccc(-c2cccs2)s1
4. CNC1CCC(N(Cc2cccc(-c3ccncc3)c2)C(=O)c2sc3ccccc3c2Cl)CC1 (configuration not stated)
5. OCCC#Cc1nc(-c2ccc(F)cc2)c(-c2ccncc2)n1CCCc1ccccc1
6. COc1ccc([S+](=O)([O-])Nc2cc(-c3csc(C#N)c3)ccc2C)cc1

Response:
[331, 472, 451, 406, 513, 489]

* * *

system: CU-ACC1; test: area under concentration-response curve (viability) (AUC (a.u.)); higher = less active; conditions: 48 h
Kind request: treat 500 as inclusive, so area under concentration-response curve at 500 or higher is fulfilled, anything lower is not fulfilled.

COMPOUND	CLASS_NAME
CC[C@@]1(O)C(=O)OCC/2=C1/C=C/3N(CC4=C(CCNC(C)C)C5=CC=CC=C5N=C34)C2=O	fulfilled
CN1C/C=C/CCOc2cccc(c2)-c2ccnc(n2)Nc2cccc(c2)C1	not fulfilled
O=C1CC[C@@]2(O)[C@H]3Cc4ccc(O)c5c4[C@@]2(CCN3CC2CC2)[C@H]1O5	not fulfilled
C[S+](=O)([O-])c1ccc(-c2nnc(/C=C/c3nnc(-c4ccc(C#N)cc4)o3)n2-c2ccccc2Cl)nc1	fulfilled
CCCCc1ccc(N[S+](=O)([O-])c2ccc(C)c(C(=O)N3CCN(c4cccc(C)c4C)CC3)c2)cc1	fulfilled

Request: Reported area under concentration-response curve reaches at least 500 for [NH2][Pt]([NH2])([Cl])[Cl] ?
Response: fulfilled

Request: Reported area under concentration-response curve reaches at least 500 for Cc1ccc(C(=O)Nc2ccc(CN3CCN(C)CC3)c(C(F)(F)F)c2)cc1C#Cc1cnc2cccnn12 ?
Response: not fulfilled

Request: Reported area under concentration-response curve reaches at least 500 for C[C@H]1CC[C@H](n2c3cnccc3c3cnc(Nc4ccc5c(n4)CCN(C(=O)CO)C5)nc32)CC1 ?
Response: fulfilled

Request: Reported area under concentration-response curve reaches at least 500 for CC1=C(F)C=CC(=C1)N2C(=O)\C=C/C3=C2C4=C([NH]C=C4)N=C3 ?
Response: fulfilled

Request: Reported area under concentration-response curve reaches at least 500 for CC1(C)CCC(C)(C)c2cc(NC(=O)c3ccc(C(=O)O)cc3)ccc21 ?
Response: not fulfilled

Request: Reported area under concentration-response curve reaches at least 500 for COc1ccc2cc(-c3[nH]c(-c4ccc([S+](C)[O-])cc4)nc3-c3ccncc3)ccc2c1 (stereo unspecified) ?
Response: not fulfilled

Request: Reported area under concentration-response curve reaches at least 500 for CCOC(=O)c1c(CSc2ccccc2)n(C)c2cc(Br)c(O)c(CN(C)C)c12 ?
Response: not fulfilled

Request: Reported area under concentration-response curve reaches at least 500 for CC[S+](=O)([O-])Nc1ccc2c(c1)/C(=C(/Nc1ccc(CN3CCCCC3)cc1)c1ccccc1)C(=O)N2 ?
Response: not fulfilled

Request: Reported area under concentration-response curve reaches at least 500 for N\C1=N\C2=C(N=C[N]2COCCO)C(=O)N1 ?
Response: not fulfilled

Request: Reported area under concentration-response curve reaches at least 500 for N[C@@H](CC(=O)N1CCn2c(nnc2C(F)(F)F)C1)Cc1cc(F)c(F)cc1F ?
Response: fulfilled
